Measured values drawn from patent US20250388664A1 for this set.

- TESTED TARGET: T1, truncated hTfR1 of SEQ ID NO:122 (human, UniProt P02786 122-760)
- T1 construct: also called human TfR1; Human TfR1
- T1 sequence (P02786 other isoform, or with tags, fused parts or gaps limits assumed): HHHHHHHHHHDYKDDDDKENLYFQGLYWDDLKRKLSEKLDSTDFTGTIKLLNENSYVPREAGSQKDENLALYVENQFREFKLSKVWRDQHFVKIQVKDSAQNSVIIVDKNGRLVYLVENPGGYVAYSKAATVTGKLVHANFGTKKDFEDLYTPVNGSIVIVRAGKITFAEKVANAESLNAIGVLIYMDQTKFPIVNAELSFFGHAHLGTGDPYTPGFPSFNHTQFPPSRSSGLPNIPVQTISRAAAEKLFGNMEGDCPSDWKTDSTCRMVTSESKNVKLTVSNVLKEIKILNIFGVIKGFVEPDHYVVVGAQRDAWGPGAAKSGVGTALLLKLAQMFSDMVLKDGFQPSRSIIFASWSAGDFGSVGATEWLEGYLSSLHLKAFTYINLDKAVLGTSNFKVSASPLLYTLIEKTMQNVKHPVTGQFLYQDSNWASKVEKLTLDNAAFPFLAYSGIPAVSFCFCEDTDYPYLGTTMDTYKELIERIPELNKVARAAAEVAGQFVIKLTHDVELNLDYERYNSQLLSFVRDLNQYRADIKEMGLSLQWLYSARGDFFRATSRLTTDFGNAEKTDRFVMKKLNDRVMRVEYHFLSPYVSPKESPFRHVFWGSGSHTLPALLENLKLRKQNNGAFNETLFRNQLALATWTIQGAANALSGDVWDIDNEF
- TEST METHOD NOTES: SPR, FLAG-captured TfR1, scFv injected, 1:1 fit

BINDER: h26D3 HC6 DS S122K (scFv, also called h26D3 DS S122K) scFv: HHHHHHGGGGSGGGGSGGGGSGGGGSDIQMTQSPSSVSASVGDRVTITCKSSQSLLYSTNQKNYLAWYQQKPGKAPKLLIYWASTRESGVPSRFSGSGSGTDFTLTISSLQPEDFATYYCQQYFIYPRTFGCGTKVEIKGGGGSGGGGSGGGGSGGGGSEVQLVQSGAEVKKPGSSVKVSCKASGYIFTDYNMDWVRQAPGQCLEWIGDINPDADTTSYNEKFKGRATLTVDKSTSTAYMELSSLRSEDTAVYYCARGGYSGSSYYHPMDYWGQGTLVTVKS
koff, s⁻¹: 0.00407

BINDER: h26D3 HC6 DS V11R T91A (scFv, also called h26D3 DS V11R T91A) scFv: HHHHHHGGGGSGGGGSGGGGSGGGGSDIQMTQSPSSVSASVGDRVTITCKSSQSLLYSTNQKNYLAWYQQKPGKAPKLLIYWASTRESGVPSRFSGSGSGTDFTLTISSLQPEDFATYYCQQYFIYPRTFGCGTKVEIKGGGGSGGGGSGGGGSGGGGSEVQLVQSGAERKKPGSSVKVSCKASGYIFTDYNMDWVRQAPGQCLEWIGDINPDADTTSYNEKFKGRATLTVDKSTSTAYMELSSLRSEDAAVYYCARGGYSGSSYYHPMDYWGQGTLVTVSS
koff, s⁻¹: 0.00458

BINDER: h26D3 HC6 DS V11R T120K (scFv, also called h26D3 DS V11R T120K) scFv: HHHHHHGGGGSGGGGSGGGGSGGGGSDIQMTQSPSSVSASVGDRVTITCKSSQSLLYSTNQKNYLAWYQQKPGKAPKLLIYWASTRESGVPSRFSGSGSGTDFTLTISSLQPEDFATYYCQQYFIYPRTFGCGTKVEIKGGGGSGGGGSGGGGSGGGGSEVQLVQSGAERKKPGSSVKVSCKASGYIFTDYNMDWVRQAPGQCLEWIGDINPDADTTSYNEKFKGRATLTVDKSTSTAYMELSSLRSEDTAVYYCARGGYSGSSYYHPMDYWGQGTLVKVSS
koff, s⁻¹: 0.00441

BINDER: h26D3 HC6 DS T91S T120K (scFv, also called h26D3 DS T91S T120K) scFv: HHHHHHGGGGSGGGGSGGGGSGGGGSDIQMTQSPSSVSASVGDRVTITCKSSQSLLYSTNQKNYLAWYQQKPGKAPKLLIYWASTRESGVPSRFSGSGSGTDFTLTISSLQPEDFATYYCQQYFIYPRTFGCGTKVEIKGGGGSGGGGSGGGGSGGGGSEVQLVQSGAEVKKPGSSVKVSCKASGYIFTDYNMDWVRQAPGQCLEWIGDINPDADTTSYNEKFKGRATLTVDKSTSTAYMELSSLRSEDSAVYYCARGGYSGSSYYHPMDYWGQGTLVKVSS
koff, s⁻¹: 0.00409

BINDER: h26D3 HC6 DS S16E (scFv, also called h26D3 DS S16E) scFv: HHHHHHGGGGSGGGGSGGGGSGGGGSDIQMTQSPSSVSASVGDRVTITCKSSQSLLYSTNQKNYLAWYQQKPGKAPKLLIYWASTRESGVPSRFSGSGSGTDFTLTISSLQPEDFATYYCQQYFIYPRTFGCGTKVEIKGGGGSGGGGSGGGGSGGGGSEVQLVQSGAEVKKPGESVKVSCKASGYIFTDYNMDWVRQAPGQCLEWIGDINPDADTTSYNEKFKGRATLTVDKSTSTAYMELSSLRSEDTAVYYCARGGYSGSSYYHPMDYWGQGTLVTVSS
koff, s⁻¹: 0.00397

BINDER: h26D3 HC6 DS T91S S122K (scFv, also called h26D3 DS T91S S122K) scFv: HHHHHHGGGGSGGGGSGGGGSGGGGSDIQMTQSPSSVSASVGDRVTITCKSSQSLLYSTNQKNYLAWYQQKPGKAPKLLIYWASTRESGVPSRFSGSGSGTDFTLTISSLQPEDFATYYCQQYFIYPRTFGCGTKVEIKGGGGSGGGGSGGGGSGGGGSEVQLVQSGAEVKKPGSSVKVSCKASGYIFTDYNMDWVRQAPGQCLEWIGDINPDADTTSYNEKFKGRATLTVDKSTSTAYMELSSLRSEDSAVYYCARGGYSGSSYYHPMDYWGQGTLVTVKS
koff, s⁻¹: 0.0038
